Reference source: patent US6841530B2

Below, each of the compounds is paired with its reported Cytotoxocity value.
Tested on: CV-1
test: Cytotoxicity score in the HSV/CV-1 antiviral assay
condition-set: 20 ng/mL, scale 0 (least toxic) to 16 (toxic)
Starred links: 1 amine or outer side, 2 acyl side, 3 side chain; linkers in the order of their positions; H or OH if unused. Positions of bridges follow the written chain, without caps; N, C: chain ends. Non-standard residues stand in square brackets, D forms with d. Residues, ends and D or L forms follow the SMILES beside them. X1 = CC[C@H](C)[C@@H](N[*:1])[C@@H](O)CC(=O)O[C@H](C(=O)[C@H](C)C(=O)[*:2])C(C)C; NMeY = CN[C@@H](Cc1ccc(O)cc1)C(=O)O; dNMeL = CN[C@H](CC(C)C)C(=O)O; pGlu = O=C1CC[C@@H](C(=O)O)N1; Lac = C[C@H](O)C(=O)O
attribute-measured: Cytotoxocity

[[record]]
compound = "CC[C@H](C)[C@H]1NC(=O)[C@@H](NC(=O)[C@@H](CC(C)C)N(C)C(=O)[C@@H]2CCCN2C(=O)[C@H](C)OC(=O)[C@@H]2CCC(=O)N2)[C@@H](C)OC(=O)[C@H](Cc2ccc(OC)cc2)N(C)C(=O)[C@@H]2CCCN2C(=O)[C@H](CC(C)C)NC(=O)[C@@H](C)C(=O)[C@H](C(C)C)OC(=O)C[C@@H]1O [pGlu-Didemnin B (39), L-Pyroglutaminyl-didemnin B] ([pGlu][Lac]P[dNMeL]T[X1]LP[NMeY](Me); ester 5-C)"
assay_result = 0

[[record]]
compound = "CC[C@H](C)[C@H]1NC(=O)[C@@H](NC(=O)[C@@H](CC(C)C)N(C)C(=O)[C@@H]2CCCN2C(=O)[C@H](C)OC(=O)[C@@H](N)CCC(N)=O)[C@@H](C)OC(=O)[C@H](Cc2ccc(OC)cc2)N(C)C(=O)[C@@H]2CCCN2C(=O)[C@H](CC(C)C)NC(=O)[C@@H](C)C(=O)[C@H](C(C)C)OC(=O)C[C@@H]1O [Gln-Didemnin B, Glutaminyl-didemnin B] (H-Q[Lac]P[dNMeL]T[X1]LP[NMeY](Me); ester 5-C)"
assay_result = 16

[[record]]
compound = "CC[C@H](C)[C@H]1NC(=O)[C@@H](NC(=O)[C@@H](CC(C)C)NC)[C@@H](C)OC(=O)[C@H](Cc2ccc(OC)cc2)N(C)C(=O)[C@@H]2CCCN2C(=O)[C@H](CC(C)C)NC(=O)[C@@H](C)C(=O)[C@H](C(C)C)OC(=O)C[C@@H]1O [Didemnin A (1), Didemnin A] (H-[dNMeL]T[X1]LP[NMeY](Me); ester 2-C)"
assay_result = 0


---

Test system: CV-1
test: Cytotoxicity score in the HSV/CV-1 antiviral assay
condition-set: 50 ng/mL, scale 0 (least toxic) to 16 (toxic)
Starred links: 1 amine or outer side, 2 acyl side, 3 side chain; linkers in the order of their positions; H or OH if unused. Positions of bridges follow the written chain, without caps; N, C: chain ends. Non-standard residues stand in square brackets, D forms with d. Residues, ends and D or L forms follow the SMILES beside them. *: point of attachment. X1 = CC[C@H](C)[C@@H](N[*:1])[C@@H](O)CC(=O)O[C@H](C(=O)[C@H](C)C(=O)[*:2])C(C)C; NMeY = CN[C@@H](Cc1ccc(O)cc1)C(=O)O; dNMeL = CN[C@H](CC(C)C)C(=O)O; Pyruvoyl = CC(=O)C(=O)*; Cbz = O=C(OCc1ccccc1)*; Lac = C[C@H](O)C(=O)O
attribute-measured: Cytotoxocity

[[record]]
compound = "CC[C@H](C)[C@H]1NC(=O)[C@@H](NC(=O)[C@@H](CC(C)C)N(C)C(=O)[C@@H]2CCCN2C(=O)C(C)=O)[C@@H](C)OC(=O)[C@H](Cc2ccc(OC)cc2)N(C)C(=O)[C@@H]2CCCN2C(=O)[C@H](CC(C)C)NC(=O)[C@@H](C)C(=O)[C@H](C(C)C)OC(=O)C[C@@H]1O [Dehydrodidemnin B (6), Dehydrodidemnin B] (Pyruvoyl-P[dNMeL]T[X1]LP[NMeY](Me); ester 3-C)"
assay_result = 16

[[record]]
compound = "CC[C@H](C)[C@H]1NC(=O)[C@@H](NC(=O)[C@@H](CC(C)C)N(C)C(=O)[C@@H]2CCCN2C(=O)[C@H](C)OC(=O)[C@@H](N)CCC(N)=O)[C@@H](C)OC(=O)[C@H](Cc2ccc(OC)cc2)N(C)C(=O)[C@@H]2CCCN2C(=O)[C@H](CC(C)C)NC(=O)[C@@H](C)C(=O)[C@H](C(C)C)OC(=O)C[C@@H]1O [Gln-Didemnin B, Glutaminyl-didemnin B] (H-Q[Lac]P[dNMeL]T[X1]LP[NMeY](Me); ester 5-C)"
assay_result = 16

[[record]]
compound = "CC[C@H](C)[C@H]1NC(=O)[C@@H](NC(=O)[C@@H](CC(C)C)N(C)C(=O)[C@@H]2CCCN2C(=O)[C@H](C)OC(=O)[C@H](CCC(N)=O)NC(=O)OCc2ccccc2)[C@@H](C)OC(=O)[C@H](Cc2ccc(OC)cc2)N(C)C(=O)[C@@H]2CCCN2C(=O)[C@H](CC(C)C)NC(=O)[C@@H](C)C(=O)[C@H](C(C)C)OC(=O)C[C@@H]1O [Cbz-Gln-Didemnin B (161)] (Cbz-Q[Lac]P[dNMeL]T[X1]LP[NMeY](Me); ester 5-C)"
assay_result = 0

[[record]]
compound = "CC[C@H](C)[C@H]1NC(=O)[C@@H](NC(=O)[C@@H](CC(C)C)NC)[C@@H](C)OC(=O)[C@H](Cc2ccc(OC)cc2)N(C)C(=O)[C@@H]2CCCN2C(=O)[C@H](CC(C)C)NC(=O)[C@@H](C)C(=O)[C@H](C(C)C)OC(=O)C[C@@H]1O [Didemnin A (1), Didemnin A] (H-[dNMeL]T[X1]LP[NMeY](Me); ester 2-C)"
assay_result = 0


---

System: CV-1
test: Cytotoxicity score in the HSV/CV-1 antiviral assay
condition-set: 100 ng/mL, scale 0 (least toxic) to 16 (toxic)
Starred links: 1 amine or outer side, 2 acyl side, 3 side chain; linkers in the order of their positions; H or OH if unused. Positions of bridges follow the written chain, without caps; N, C: chain ends. Non-standard residues stand in square brackets, D forms with d. Residues, ends and D or L forms follow the SMILES beside them. *: point of attachment. X1 = CC[C@H](C)[C@@H](N[*:1])[C@@H](O)CC(=O)O[C@H](C(=O)[C@H](C)C(=O)[*:2])C(C)C; NMeY = CN[C@@H](Cc1ccc(O)cc1)C(=O)O; dNMeL = CN[C@H](CC(C)C)C(=O)O; pGlu = O=C1CC[C@@H](C(=O)O)N1; Cbz = O=C(OCc1ccccc1)*; Lac = C[C@H](O)C(=O)O
attribute-measured: Cytotoxocity

[[record]]
compound = "CC[C@H](C)[C@H]1NC(=O)[C@@H](NC(=O)[C@@H](CC(C)C)N(C)C(=O)[C@@H]2CCCN2C(=O)[C@H](C)OC(=O)[C@H](CCC(N)=O)NC(=O)[C@@H]2CCC(=O)N2)[C@@H](C)OC(=O)[C@H](Cc2ccc(OC)cc2)N(C)C(=O)[C@@H]2CCCN2C(=O)[C@H](CC(C)C)NC(=O)[C@@H](C)C(=O)[C@H](C(C)C)OC(=O)C[C@@H]1O [Didemnin M (5), L-Pyroglutaminyl-L-glutaminyl-didemnin B] ([pGlu]Q[Lac]P[dNMeL]T[X1]LP[NMeY](Me); ester 6-C)"
assay_result = 16

[[record]]
compound = "CC[C@H](C)[C@H]1NC(=O)[C@@H](NC(=O)[C@@H](CC(C)C)N(C)C(=O)[C@@H]2CCCN2C(=O)[C@H](C)OC(=O)[C@H](CCC(N)=O)NC(=O)OCc2ccccc2)[C@@H](C)OC(=O)[C@H](Cc2ccc(OC)cc2)N(C)C(=O)[C@@H]2CCCN2C(=O)[C@H](CC(C)C)NC(=O)[C@@H](C)C(=O)[C@H](C(C)C)OC(=O)C[C@@H]1O [Cbz-Gln-Didemnin B (161)] (Cbz-Q[Lac]P[dNMeL]T[X1]LP[NMeY](Me); ester 5-C)"
assay_result = 0


---

test: Cytotoxicity of didemnins (Table II)
Format: cell-based
condition-set: cytotoxicity
Starred links: 1 amine or outer side, 2 acyl side, 3 side chain; linkers in the order of their positions; H or OH if unused. Positions of bridges follow the written chain, without caps; N, C: chain ends. Non-standard residues stand in square brackets, D forms with d. Residues, ends and D or L forms follow the SMILES beside them. *: point of attachment. X1 = CC[C@H](C)[C@@H](N[*:1])[C@@H](O)CC(=O)O[C@H](C(=O)[C@H](C)C(=O)[*:2])C(C)C; NMeY = CN[C@@H](Cc1ccc(O)cc1)C(=O)O; dNMeL = CN[C@H](CC(C)C)C(=O)O; pGlu = O=C1CC[C@@H](C(=O)O)N1; Cbz = O=C(OCc1ccccc1)*; Boc = CC(C)(C)OC(=O)*; Lac = C[C@H](O)C(=O)O
attribute-measured: IC50 (ng/mL)

[[record]]
compound = "CC[C@H](C)[C@H]1NC(=O)[C@@H](NC(=O)[C@@H](CC(C)C)N(C)C(=O)[C@@H]2CCCN2C(=O)OC(C)(C)C)[C@@H](C)OC(=O)[C@H](Cc2ccc(OC)cc2)N(C)C(=O)[C@@H]2CCCN2C(=O)[C@H](CC(C)C)NC(=O)[C@@H](C)C(=O)[C@H](C(C)C)OC(=O)C[C@@H]1O [Boc-Pro-didemnin A (158), Boc-L-prolyl-didemnin A] (Boc-P[dNMeL]T[X1]LP[NMeY](Me); ester 3-C)"
unit_abbrev = "ng/mL"
assay_result = 85

[[record]]
compound = "CC[C@H](C)[C@H]1NC(=O)[C@@H](NC(=O)[C@@H](CC(C)C)N(C)C(=O)[C@@H]2CCCN2C(=O)[C@H](C)OC(=O)[C@@H]2CCC(=O)N2)[C@@H](C)OC(=O)[C@H](Cc2ccc(OC)cc2)N(C)C(=O)[C@@H]2CCCN2C(=O)[C@H](CC(C)C)NC(=O)[C@@H](C)C(=O)[C@H](C(C)C)OC(=O)C[C@@H]1O [pGlu-Didemnin B (39), L-Pyroglutaminyl-didemnin B] ([pGlu][Lac]P[dNMeL]T[X1]LP[NMeY](Me); ester 5-C)"
unit_abbrev = "ng/mL"
assay_result = 0.1

[[record]]
compound = "CC[C@H](C)[C@H]1NC(=O)[C@@H](NC(=O)[C@@H](CC(C)C)N(C)C(=O)[C@@H]2CCCN2C(=O)[C@H](C)OC(=O)[C@H](CCC(N)=O)NC(=O)OCc2ccccc2)[C@@H](C)OC(=O)[C@H](Cc2ccc(OC)cc2)N(C)C(=O)[C@@H]2CCCN2C(=O)[C@H](CC(C)C)NC(=O)[C@@H](C)C(=O)[C@H](C(C)C)OC(=O)C[C@@H]1O [Cbz-Gln-Didemnin B (161)] (Cbz-Q[Lac]P[dNMeL]T[X1]LP[NMeY](Me); ester 5-C)"
unit_abbrev = "ng/mL"
assay_result = 25

[[record]]
compound = "CC[C@H](C)[C@H]1NC(=O)[C@@H](NC(=O)[C@@H](CC(C)C)N(C)C(=O)[C@@H]2CCCN2C(=O)[C@H](C)OC(=O)[C@@H](N)CCC(N)=O)[C@@H](C)OC(=O)[C@H](Cc2ccc(OC)cc2)N(C)C(=O)[C@@H]2CCCN2C(=O)[C@H](CC(C)C)NC(=O)[C@@H](C)C(=O)[C@H](C(C)C)OC(=O)C[C@@H]1O [Gln-Didemnin B, Glutaminyl-didemnin B] (H-Q[Lac]P[dNMeL]T[X1]LP[NMeY](Me); ester 5-C)"
unit_abbrev = "ng/mL"
assay_result = 0.1

[[record]]
compound = "CC[C@H](C)[C@H]1NC(=O)[C@@H](NC(=O)[C@@H](CC(C)C)N(C)C(=O)[C@@H]2CCCN2C(=O)[C@H](C)OC(=O)[C@H](CCC(N)=O)NC(=O)OCc2ccccc2)[C@@H](C)OC(=O)[C@H](Cc2ccc(OC)cc2)N(C)C(=O)[C@@H]2CCCN2C(=O)[C@H](CC(C)C)NC(=O)[C@@H](C)C(=O)[C@H](C(C)C)OC(=O)C[C@@H]1OC(=O)[C@H](CCC(N)=O)NC(=O)OCc1ccccc1 [Cbz-Gln[Cbz-GlnIst^2]DB (162)]"
unit_abbrev = "ng/mL"
assay_result = 50

